Tested on: ATP;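 note: ATP exposure 15 min at 22 °C before imaging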
Experiment: switch fluorescence ratio, 500 uM ATP over buffer (Cy3 cluster intensity, sum of 5 cycles each) (fold (ratio)); higher = stronger signal-on switching upon ATP binding; sequences stand for … in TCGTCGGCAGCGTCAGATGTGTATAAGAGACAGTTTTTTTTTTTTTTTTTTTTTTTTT…TC
Details: aptamer strand: ATP DNA aptamer (quencher-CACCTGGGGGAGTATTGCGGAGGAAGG + anchor), 100 nM annealed; ATP concentration: 500 uM
QUANTITY MEASURED: switch fluorescence ratio
Reply: number alone, nothing else.

Guide cases for switch fluorescence ratio, answers given:
> print(dat)
   seq.string  result.number
1  AATCTACGCA           1.44
2  AAGTTCCTTC           1.05
3  CAGTCATATT           1.02

State measured switch fluorescence ratio of the sequence "GAACCTTGAC" with ATP. 1.61

System ATP. Read-out switch fluorescence ratio. Item "TTTTGACTTT" . Report value. 0.998

Specify switch fluorescence ratio for "AGCGGCATGT" , system ATP. 0.978
